Target Under Test: AKT1 (PKBα) (Homo sapiens (Human), UniProt P31749)
Sequence (P31749 whole entry): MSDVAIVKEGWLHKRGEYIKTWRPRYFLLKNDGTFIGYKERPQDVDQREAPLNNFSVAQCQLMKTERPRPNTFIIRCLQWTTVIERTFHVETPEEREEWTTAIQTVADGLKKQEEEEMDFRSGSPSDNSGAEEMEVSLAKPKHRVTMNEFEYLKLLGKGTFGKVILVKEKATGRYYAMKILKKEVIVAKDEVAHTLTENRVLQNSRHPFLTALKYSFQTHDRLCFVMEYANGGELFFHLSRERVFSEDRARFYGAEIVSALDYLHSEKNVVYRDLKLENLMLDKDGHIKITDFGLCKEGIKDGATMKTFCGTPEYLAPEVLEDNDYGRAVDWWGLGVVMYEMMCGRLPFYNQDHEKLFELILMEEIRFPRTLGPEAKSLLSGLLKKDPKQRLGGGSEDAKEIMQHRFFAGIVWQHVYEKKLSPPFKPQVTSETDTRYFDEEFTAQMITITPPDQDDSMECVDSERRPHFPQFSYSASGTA
Condition Context: read-out: In vitro PKBα Mean IC50; AKT1/PKBα active enzyme, Caliper LabChip LC3000
Endpoint Name: IC50 (nM)

compound="CC(=O)NCCC(NC(=O)C1(N)CCN(c2ncnc3[nH]ccc23)CC1)c1ccc(Cl)cc1 (centres unmarked) [Example 10]" target_under_test="AKT1 (PKBα) (Homo sapiens (Human), UniProt P31749)" unit_info=nM observed_measurement=4.2

1: C[C@H](NC(=O)C1(N)CCN(c2ncnc3[nH]nc(Br)c23)CC1)c1ccc(Cl)cc1 [Example 31]
2: NC1(C(=O)NC(Cc2ncc[nH]2)c2ccc(Cl)cc2)CCN(c2ncnc3[nH]ccc23)CC1 (centres unmarked) [Example 59]
3: NC1(C(=O)N[C@@H](CCn2ccnc2)c2ccc(Cl)cc2)CCN(c2ncnc3[nH]ccc23)CC1 [Example 54]
4: C[C@@H](NC(=O)C1(CN)CCN(c2ncnc3[nH]ccc23)CC1)c1ccc(Cl)cc1 [Example 17]
## Input Reorder: IC50, max to min. Hello, could you send the labels back in the order asked? Thank you.
## Output 1, 4, 2, 3
(1: 24 nM, 4: 12 nM, 2: 6.3 nM, 3: 3.4 nM)

A: NC1(C(=O)NC(Cn2cccn2)c2ccc(Cl)cc2)CCN(c2ncnc3[nH]ccc23)CC1 (centres unmarked) [Example 60]
B: CNCCC(NC(=O)C1(N)CCN(c2ncnc3[nH]ccc23)CC1)c1ccc(Cl)cc1 (centres unmarked) [Example 28]
## Input // max by IC50 over [ A , B ] Respond using the label that marks the chosen record.
## Output A

---

Target Under Test: AKT1 (PKBα) (Homo sapiens (Human), UniProt P31749)
Condition Context: read-out: In vitro PKBα Mean IC50; AKT1/PKBα active enzyme, Caliper LabChip LC3000; tested once only
pIC50: −log10 of the molar value.
Endpoint Name: pIC50

Some solved cases for reference:
compound="NC1(C(=O)N[C@@H](CCO)c2ccc(Cl)cc2)CCN(c2ncnc3[nH]ncc23)CC1 [Example 20]" observed_measurement=7.70
compound="NC(=O)NCCC(NC(=O)C1(N)CCN(c2ncnc3[nH]ccc23)CC1)c1ccc(Cl)cc1 (stereo not shown) [Example 67]" observed_measurement=8.11

P: NC(=O)CC(NC(=O)C1(N)CCN(c2ncnc3[nH]ccc23)CC1)c1ccc(Cl)cc1 (stereo not shown) [Example 66]
Q: NC1(C(=O)N[C@@H](CCO)c2ccccc2)CCN(c2ncnc3[nH]ccc23)CC1 [Example 21]
## Input Select the item whose pIC50 value is smaller, choosing between P and Q . Respond using the label that marks the chosen record.
## Output Q

---

Target Under Test: UniProt P31749
Condition Context: read-out: In vitro PKBα Mean IC50; AKT1/PKBα active enzyme, Caliper LabChip LC3000
pIC50: −log10 of the molar value.
Endpoint Name: pIC50

compound=C[C@H](NC(=O)C1(N)CCN(c2ncnc3[nH]cc(Br)c23)CC1)c1ccc(Cl)cc1 observed_measurement=8.40
compound="N#CC(NC(=O)C1(N)CCN(c2ncnc3[nH]ccc23)CC1)c1ccc(Cl)cc1 (stereo not drawn)" observed_measurement=6.64
compound="NC1(C(=O)NC(Cc2nccs2)c2ccc(Cl)cc2)CCN(c2ncnc3[nH]ccc23)CC1 (stereo not drawn)" observed_measurement=7.55
compound=C[C@H](NC(=O)C1(CN)CCN(c2ncnc3[nH]ccc23)CC1)c1ccc(Cl)cc1 observed_measurement=8.92
compound=NC1(C(=O)N[C@@H](CCN2CCOCC2)c2ccc(Cl)cc2)CCN(c2ncnc3[nH]ccc23)CC1 observed_measurement=8.00

a: NC1(C(=O)N[C@@H](CCO)c2cccc(Cl)c2)CCN(c2ncnc3[nH]ccc23)CC1
b: NC1(C(=O)N[C@@H](CCO)c2ccc(Cl)cc2)CCN(c2ncnc3[nH]nc(Br)c23)CC1
c: NC1(C(=O)N[C@@H](CCN2CCNCC2)c2ccc(Cl)cc2)CCN(c2ncnc3[nH]ccc23)CC1
d: NCCC(NC(=O)C1(N)CCN(c2ncnc3[nH]ccc23)CC1)c1ccc(Cl)cc1 (stereo not drawn)
## Input Hey, can you sort those compounds up there by pIC50, smallest first? Hello, could you send the labels back in the order asked? Thank you.
## Output a, b, c, d
(a: 7.49, b: 7.85, c: 8.20, d: 8.52)

I: N#Cc1ccc([C@H](CCO)NC(=O)C2(N)CCN(c3ncnc4[nH]ccc34)CC2)cc1
II: C[C@@H](NC(=O)C1(N)CCN(c2ncnc3[nH]ccc23)CC1)c1ccc(Br)cc1
## Input Select the item whose pIC50 value is smaller, choosing between I and II . Respond using the label that marks the chosen record.
## Output II

I: C[C@H](NC(=O)C1(N)CCN(c2ncnc3[nH]ccc23)CC1)c1ccc(C(F)(F)F)cc1
II: CC(C)(O)C[C@H](NC(=O)C1(N)CCN(c2ncnc3[nH]ccc23)CC1)c1ccc(Cl)cc1
III: NCC1(C(=O)N[C@@H](CCO)c2ccc(Cl)cc2)CCN(c2ncnc3[nH]ccc23)CC1
## Input Reorder: pIC50, max to min. Hello, could you send the labels back in the order asked? Thank you.
## Output III, II, I

a: N#CCC(NC(=O)C1(N)CCN(c2ncnc3[nH]ccc23)CC1)c1ccc(Cl)cc1 (stereo not drawn)
b: Cc1c[nH]c2ncnc(N3CCC(N)(C(=O)N[C@@H](C)c4ccc(Cl)cc4)CC3)c12
c: CCN(CC)CC[C@H](NC(=O)C1(N)CCN(c2ncnc3[nH]ccc23)CC1)c1ccc(Cl)cc1
d: NC1(C(=O)N[C@@H](CCO)c2ccc(Br)cc2)CCN(c2ncnc3[nH]ccc23)CC1
## Input Reorder: pIC50, max to min. Hello, could you send the labels back in the order asked? Thank you.
## Output d, c, a, b

---

Target Under Test: AKT1 (PKBα) (Homo sapiens (Human))
Condition Context: read-out: In vitro PKBα Mean IC50; AKT1/PKBα active enzyme, Caliper LabChip LC3000
pIC50: −log10 of the molar value.
Endpoint Name: pIC50

compound="NC1(C(=O)N[C@@H](CCO)c2ccc(Cl)cc2)CCN(c2ncnc3[nH]cnc23)CC1 [Example 22]" observed_measurement=8.12
compound="NC1(C(=O)N[C@@H](CCO)c2ccc(Cl)cc2)CCN(c2ncnc3[nH]cc(Cl)c23)CC1 [Example 34]" observed_measurement=8.04
compound="NCC(NC(=O)C1(N)CCN(c2ncnc3[nH]ccc23)CC1)c1ccc(Cl)cc1 (stereo not drawn) [Example 5]" observed_measurement=8.01
compound="Cc1c[nH]c2ncnc(N3CCC(N)(C(=O)N[C@@H](CCO)c4ccc(Cl)cc4)CC3)c12 [Example 36]" observed_measurement=7.85

a: C[C@H](NC(=O)C1(N)CCN(c2ncnc3[nH]cc(Cl)c23)CC1)c1ccc(Cl)cc1 [Example 32]
b: Cc1cc(CC(NC(=O)C2(N)CCN(c3ncnc4[nH]ccc34)CC2)c2ccc(Cl)cc2)on1 (stereo not drawn) [Example 61]
## Input // max by pIC50 over [ a , b ] Respond using the label that marks the chosen record.
## Output a
(a: 7.92, b: 7.64)
